read-out: ABC Transporter (ABCC3), ABCC3 (gene 8714); experiment: LTEA_HepaRG_ABCC3: Life Technologies and Expression Analysis (LTEA) Assay for ABC Transporter (ABCC3) using HepaRG (AID 2283462); conditions: mRNA level, 48 h; actives raise or lower the signal
Active and inactive are the calls of the source. Rule for the calls: active = hit-call score of the fitted dose curve at least 0.9, where 1 is the maximum; inactive = score below 0.9.
Reply using exactly one outcome from TRUE = active, FALSE = inactive

Some solved entries appear below for comparison.
INPUT SMILES	CLASSIFICATION
C1=Cc2cccc3cccc1c23	FALSE
CCCCCCCCn1sccc1=O	TRUE
CO[C@@H]1[C@H](OC(=O)NC(=O)CCl)CC[C@]2(CO2)[C@H]1[C@@]1(C)O[C@@H]1CC=C(C)C	FALSE

Query block: What is the recorded call for this molecule in the test? Cn1cc(-c2ccccc2)c(=O)c(-c2cccc(C(F)(F)F)c2)c1
Result block: FALSE

Query block: What is the recorded call for this molecule in the test? Nc1ccc(Oc2ccc(N)cc2)cc1
Result block: FALSE

Query block: What is the recorded call for this molecule in the test? [As]#[In]
Result block: FALSE

Query block: What is the recorded call for this molecule in the test? O=P(OCCCl)(OCCCl)OCCCl
Result block: FALSE

Query block: What is the recorded call for this molecule in the test? CCOC(=O)[C@]1(c2ccccc2)Oc2ccccc2[C@@H]1N
Result block: FALSE

Query block: What is the recorded call for this molecule in the test? ClC1=C(Cl)[C@]2(Cl)[C@H]3[C@H]([C@@H]4C=C[C@H]3C4)[C@@]1(Cl)C2(Cl)Cl
Result block: FALSE

Query block: What is the recorded call for this molecule in the test? CCNS(=O)(=O)C(F)(F)C(F)(F)C(F)(F)C(F)(F)C(F)(F)C(F)(F)C(F)(F)C(F)(F)F
Result block: FALSE

Query block: What is the recorded call for this molecule in the test? CCCSC(=O)N(CCC)CCC
Result block: FALSE

Query block: What is the recorded call for this molecule in the test? OCCOCCO
Result block: FALSE

====

read-out: Caspase-3 (Homo sapiens); test: LTEA_HepaRG_CASP3: Life Technologies and Expression Analysis (LTEA) Assay for cysteine-aspartic acid protease (CASP3) using HepaRG (AID 2283477); settings: mRNA level, 48 h; actives raise or lower the signal
The source made the active and inactive calls. Rule for the calls: active = hit-call score of the fitted dose curve at least 0.9, where 1 is the maximum; inactive = score below 0.9.
Reply using exactly one outcome from active, inactive

MOLECULE	CLASSIFICATION
CN(C)C(=O)Nc1ccc(Cl)cc1	inactive
Nc1cc(Cl)cc(C(=O)O)c1Cl	inactive
CCCCCOC(=O)c1ccccc1C(=O)OCCCCC	inactive

Query block: What is the recorded call for this molecule in the test? C[N+](C)(C)CC1CO1 (stereo not given)
Result block: inactive

Query block: What is the recorded call for this molecule in the test? c1ccc2c(c1)-c1cccc3cccc-2c13
Result block: inactive

Query block: What is the recorded call for this molecule in the test? CNC(=O)Oc1cccc2c1OC(C)(C)C2
Result block: inactive

Query block: What is the recorded call for this molecule in the test? CN(C)c1ccc(C(=O)c2ccc(N(C)C)cc2)cc1
Result block: inactive

Query block: What is the recorded call for this molecule in the test? CCCCOC(=O)c1ccccc1C(=O)OCc1ccccc1
Result block: inactive

Query block: What is the recorded call for this molecule in the test? Cc1ccc(N)cc1
Result block: inactive

Query block: What is the recorded call for this molecule in the test? COc1cc(C=O)cc2c1[C@H](COC(N)=O)[C@]1(OC(C)=O)ON2C[C@H]2[C@@H]1N2C(C)=O
Result block: inactive

Query block: What is the recorded call for this molecule in the test? CCN(CC)N=O
Result block: inactive

Query block: What is the recorded call for this molecule in the test? Cn1cc(-c2ccccc2)c(=O)c(-c2cccc(C(F)(F)F)c2)c1
Result block: inactive

Query block: What is the recorded call for this molecule in the test? O=C(N[C@H](c1ccccc1)[C@@H]1CN2CCC1CC2)c1c(Cl)ccc(C(F)(F)F)c1Cl
Result block: active

Query block: What is the recorded call for this molecule in the test? CN(C)[C@@H]1C(=O)C(C(N)=O)=C(O)[C@@]2(O)C(=O)C3=C(O)c4c(O)cccc4[C@@](C)(O)[C@H]3C[C@@H]12
Result block: inactive

Query block: What is the recorded call for this molecule in the test? C=CCc1ccc2c(c1)OCO2
Result block: inactive
